Measured on: human DRD2, long form (Homo sapiens, UniProt P14416)
Construct: Gqi5 chimera transiently transfected
Sequence (P14416 whole entry): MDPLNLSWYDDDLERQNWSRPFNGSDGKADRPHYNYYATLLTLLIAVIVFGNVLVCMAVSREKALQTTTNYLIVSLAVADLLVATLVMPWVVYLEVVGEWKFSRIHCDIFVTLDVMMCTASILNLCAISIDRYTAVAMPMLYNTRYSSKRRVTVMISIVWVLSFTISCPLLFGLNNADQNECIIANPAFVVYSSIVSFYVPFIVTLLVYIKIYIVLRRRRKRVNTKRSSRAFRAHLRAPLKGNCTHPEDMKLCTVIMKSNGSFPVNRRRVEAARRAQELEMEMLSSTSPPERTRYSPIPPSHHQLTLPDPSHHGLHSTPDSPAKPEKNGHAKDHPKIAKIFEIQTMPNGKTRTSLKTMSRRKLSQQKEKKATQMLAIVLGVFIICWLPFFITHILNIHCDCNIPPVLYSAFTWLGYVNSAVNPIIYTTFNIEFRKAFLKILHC
Assay notes: Intracellular Ca2+ mobilization assay (HEK293T stably expressing DRD2, chimeric G-protein Gqi5, calcium dye, confocal microscopy)
Condition set: Ca assay; HEK293T stably expressing human DRD2 and chimeric G-protein; Hill slope of 1.0
pEC50: −log10 of the molar value.

{"Compound": "C#CCOc1ccc(C(=O)c2ccc(CN[C@H]3CCc4nc(N)sc4C3)cc2)cc1", "pEC50": 5.66}
{"Compound": "CCCN(CCC)CCc1cccc2c1CC(=O)N2 [ropinirole, reference compound]", "pEC50": 6.91}
{"Compound": "C#CCOc1ccc(C(=O)c2ccc(CNCCc3cccc4c3CC(=O)N4)cc2)cc1", "pEC50": 5.78}

----------
Measured on: DRD2 (Homo sapiens)
Assay notes: PRESTO-TANGO β-arrestin recruitment assay (HTLA cells transfected with DRD2-TANGO, luciferase readout)
Format: cell-based
Design: TEV protease site and fused transcription factor (TANGO module); expressed in transfected cells; host or cells: HTLA cells (gift of G. Barnea), transiently transfected
Condition set: PRESTO-TANGO
Measured endpoint: activity in β-arrestin recruitment (in words)

{"Molecule": "C#CCOc1ccc(C(=O)c2ccc(CN[C@H]3CCc4nc(N)sc4C3)cc2)cc1", "Meas value": "low micromolar activity"}
{"Molecule": "CCCN(CCC)CCc1cccc2c1CC(=O)N2 [ropinirole, reference compound]", "Meas value": "low nanomolar activity"}
{"Molecule": "CCCN[C@H]1CCc2nc(N)sc2C1 [pramipexole]", "Meas value": "low nanomolar activity"}
{"Molecule": "C#CCOc1ccc(C(=O)c2ccc(CNCCc3cccc4c3CC(=O)N4)cc2)cc1", "Meas value": "low micromolar activity"}

----------
Measured on: human DRD2, long form (Homo sapiens)
Construct: expressed in transfected cells; Gqi5 chimera transiently transfected
Assay notes: Intracellular Ca2+ mobilization assay (HEK293T stably expressing DRD2, chimeric G-protein Gqi5, calcium dye, confocal microscopy)
Assay type: cell-based
Condition set: calcium flux bioactivity
From the text: Intracellular calcium measurement was used to determine G-protein-mediated signaling by DRD2. Because DRD2 is linked to the G-protein subtype Gi, agonist binding inhibits adenyl cyclase activity.[42] […] Binding of the ligand to the receptor results in an influx of calcium to the cytoplasm, which can be characterized in real time by monitoring the increase in dye fluorescence with confocal microscopy. […]
Measured endpoint: activity in calcium flux assay (in words)

{"Chem smiles": "C#CCOc1ccc(C(=O)c2ccc(CNCCc3cccc4c3CC(=O)N4)cc2)cc1", "Meas value": "low micromolar potency"}
{"Chem smiles": "C#CCOc1ccc(C(=O)c2ccc(CN[C@H]3CCc4nc(N)sc4C3)cc2)cc1", "Meas value": "low micromolar potency"}
